List of melting point values.

{"columns": ["Compound", "melting point"],
 "data": [
  ["CN1CCN(C2=Nc3cc(F)ccc3N3CCc4cccc2c43)CC1", "151 to 153 °C"],
  ["ON=C1c2sccc2-n2cccc21", "172 °C"],
  ["Cc1c(Cl)c(Oc2ncc(C(F)(F)F)cc2Cl)nn1C(=O)NCCCl", "112 to 114 °C"],
  ["Cc1nc(-c2cncc(F)c2)sc1N(C)C(=S)NC1CC1", "117 to 119 °C"],
  ["CCN(CC)C(=O)CCc1nc(-c2cccc(OC)c2)nc2ccccc12", "87 °C"],
  ["Clc1ccc2c(c1)CSCCCN2", "54 to 55 °C"],
  ["COc1cc(OC)nc(Oc2cccc(O)c2C=O)n1", "82 °C"],
  ["Cc1cc(CC(O)CO)c(OCc2ccccc2)c2c1CCC2 (configuration not stated)", "77 to 80 °C"],
  ["O=c1nc(NCc2ccc(Cl)cc2)n2c3c1cnn3C(c1cccc(C(F)(F)F)c1)=CC2", "281 to 282 °C"],
  ["Cc1cc(=O)n(-c2ccc(Cl)cc2F)c(=O)[nH]1", "> 220 °C"],
  ["CCN1C(=O)CSC1=NOC(=O)NCCCl", "99 to 102 °C"],
  ["CCCCn1c(C)cc(=O)c(C(=O)Nc2ccccc2)c1-c1ccccc1", "190 to 193 °C"],
  ["CS(=O)(=O)C(=C1CN(C(c2ccccc2)c2ccccc2)C1)c1ccc(Cl)cc1Cl", "165 °C"],
  ["CC(C)C(OCc1ccc(Cl)cc1)c1cncnc1 (configuration not stated)", "33 to 35 °C"],
  ["CC1(NC(=O)CN2C(=O)c3ccccc3C2=O)CCCCCC1", "190 °C"],
  ["Cc1ccc(C(C)(O)P(O)O)cc1 (configuration not stated)", "115 °C"],
  ["CN1C(=O)CC[C@]2(C)c3ccc(SCc4nc5ccccc5s4)cc3CC[C@@H]12", "78 to 80 °C"],
  ["CC(C)[C@H]1CC[C@H](Nc2ncc(Cc3ccc(O)nc3)c3ncccc23)CC1", "232 to 235 °C"],
  ["CCCc1ccc2c(c1)N(c1ncnc3cc(OC)c(OC)cc13)CC2", "140 to 141 °C"],
  ["CC12CCC3c4ccc(O)c([N+](=O)[O-])c4CCC3C1CCC2=O (configuration not stated)", "> 250 °C"],
  ["Cc1oc(-c2ccccc2)nc1COc1ccc(CCCCc2nnn[nH]2)cc1", "116 to 117 °C"],
  ["Cc1cc(C)cc(-c2nc(NC(=O)c3cccnc3)sc2-c2ccncc2)c1", "267 to 270 °C"]
]}

----------
Measurement name: melting point

{"columns": ["Molecule", "Result value"],
 "data": [
  ["Cc1sc(-c2ccccc2)nc1COc1cc(COc2ncccc2CC#N)on1", "103 to 104 °C"],
  ["CC(=O)Nc1cc2cc(N)ccc2oc1=O", "250 to 252 °C"],
  ["Cn1cc(CC(=O)O)c2cc(-c3ccc(C(F)(F)F)cc3)ccc21", "167 to 168 °C"],
  ["Cc1c(F)cccc1CC(=Cc1ccccc1)[N+](=O)[O-]", "111 to 112 °C"],
  ["C=CC(=O)OCCCCCCCCOc1ccc(C(=O)Oc2ccc(C=O)cc2)cc1", "73 °C"],
  ["OCc1nn(-c2ccc(Br)cc2)c2c1CCCC2", "126 to 127 °C"],
  ["Cc1ccccc1-c1ccc(C(=O)N2Cc3ccc(C(=O)NCCc4cccc(Cl)c4)n3Cc3ccccc32)cc1C", "174 to 176 °C"],
  ["Nc1nc(N)nc(-c2ccc(C#Cc3ccccc3)cc2)n1", "248 to 249 °C"],
  ["O=C(C=C1CCCN1)c1cccs1", "149 to 150 °C"],
  ["CCN(CC)c1ccc(C2(N(c3ccccc3)c3ccc(N(C)C)cc3)OC(=O)c3ccccc32)c(C)c1 (stereo not given)", "154 to 156 °C"],
  ["Cc1cccc(NC(=O)NC2N=C(C3CCCCC3)c3ccccc3N(Cc3ccccn3)C2=O)c1 (stereo not given)", "157 to 163 °C"],
  ["O=S(=O)(Nc1ccccc1)c1ccc(NC(=S)Nc2ccccc2)cc1", "160 to 162 °C"],
  ["C=CC(O)c1ccc([N+](=O)[O-])cc1 (stereo not given)", "55 °C"],
  ["CCCCCCC(NS(=O)(=O)c1ccc(Cl)cc1)C(=O)Nc1ccc(CC(=O)O)cc1 (racemic)", "192 to 193 °C"],
  ["C#CCNC(=C[N+](=O)[O-])NCCSCc1nccs1", "121 to 123 °C"],
  ["C(=C(/c1ccccc1)n1c2ccccc2c2ccccc21)/c1ccccc1", "160 to 162 °C"],
  ["CC(C)N(C(=O)CN1C(=O)CC(=O)N(c2ccccc2)c2ccccc21)c1ccccc1", "199 to 200 °C"],
  ["c1ccc2c(c1)c(N1CCOCC1)nc1c(-c3nc(C4CC4)no3)ncn12", "189 to 191 °C"],
  ["Cc1ccc(C(=O)NC(NC(=NC#N)Nc2cccnc2)C(Cl)(Cl)Cl)cc1 (stereo not given)", "165 to 166 °C"],
  ["CNC(=O)c1cccc(Br)c1", "126 °C"]
]}

----------
{"columns": ["Molecule", "melting point"],
 "data": [
  ["N#Cc1ccc(CC23CCCN2C(=O)N(c2cc(Cl)cc(-n4cccc4C=O)c2)C3=O)cc1 (stereo unspecified)", "110 °C"],
  ["C=CCC(O)(CC=C)c1nc(-c2ccncc2)c(-c2ccc(Cl)cc2)n1CC", "159 to 160 °C"],
  ["CCCCCCCCCCCC#Cc1ccccc1C=C(P(=O)(O)O)P(=O)(O)O", "141 to 142 °C"],
  ["C(=C(c1ccccc1)c1ccccc1)c1ccc(N(c2ccccc2)c2ccc(N(c3ccccc3)c3ccccc3)cc2)cc1", "218 to 219 °C"],
  ["COc1ccc(-c2ccc3c(C(=O)c4ccn5c4C(C)(C)SC5c4cccnc4)c[nH]c3c2)cc1 (stereo unspecified)", "236 to 239 °C"],
  ["CN(c1c(Cl)ccc2cc(C(=O)O)[nH]c12)S(=O)(=O)c1cccs1", "286 to 288 °C"],
  ["CSC1=Nc2cc(Cl)ccc2Nc2cscc21", "111 to 113 °C"],
  ["CC(C)NC(=O)c1nsc2ccc(-n3c(=O)cc(C(F)(F)F)n(C)c3=O)cc12", "110 to 113 °C"],
  ["Nc1cc(-c2ccoc2)ccc1Nc1cccc(-n2ccnc2)c1", "188 to 189 °C"],
  ["CC(=O)CNC(=O)c1cc2c(nc(C)n2C)c2c1CCC1(Cc3ccccc3C1)N2", "222 to 223 °C"],
  ["COc1ccc(-c2cc(-c3nc(C)cs3)c(=O)n(C)c2-c2cnccn2)cc1", "168 to 170 °C"],
  ["COC(=O)CCC1OC(=O)C(O)=C1c1ccccc1 (stereo unspecified)", "135 to 136 °C"],
  ["Cc1noc(NS(=O)(=O)c2ccsc2C(=O)Oc2ccc3c(c2)OCO3)c1Cl", "189 to 191 °C"],
  ["COC(=O)C(=CNc1ccc(F)c(F)c1OCC(C)O)C(=O)OC (stereo unspecified)", "107 to 108 °C"],
  ["Clc1ncnc2oc(-c3ccccc3)cc12", "136 to 138 °C"],
  ["CC1(C)CC(=O)C(C(=O)Nc2cc(F)cc(F)c2)C(=O)C1F (stereo unspecified)", "131 to 132 °C"],
  ["Cc1ccc(-c2c(NS(=O)(=O)c3ccc(C(C)(C)C)cc3)nc(C(C)C)nc2OCCO)cc1", "143 to 144 °C"],
  ["COc1ccc(-c2nnn(-c3ccc(C(F)(F)F)cc3Cl)c2CO)cc1", "131 to 132 °C"],
  ["COC(=O)Cc1cc2cc(O)ccc2s1", "136 to 137 °C"],
  ["CCCCCCCCCCc1nnn(C(C(=O)O)c2ccccc2)n1 (stereo unspecified)", "62 to 64 °C"],
  ["Cc1c(-c2ccccc2)oc2c(C(=O)NCCCN3CCN(c4cccc5c4OCC5)CC3)cccc2c1=O", "94 to 95 °C"],
  ["O=C(O)C1=Cc2cc(-c3ccc(F)cc3)ccc2OC1C(F)(F)F (stereo unspecified)", "207 to 210 °C"],
  ["COc1cc(COc2ccccc2C=O)cc(OC)c1", "68 to 69 °C"],
  ["COCCc1c[nH]c(=O)[nH]c1=O", "232 to 234 °C"],
  ["CCCc1cccc2c(C=O)cc(OC)c(O)c12", "128 to 129 °C"],
  ["Cc1nc2c(s1)CC(=O)CC2", "95 to 96 °C"],
  ["C[Si](C)(C)N1C(=O)c2ccccc2S1(=O)=O", "90 to 92 °C"],
  ["O=C(O)c1ccc(Cl)cc1Nc1cccc(Br)c1", "205 to 207 °C"],
  ["COc1ccc(-c2ccc3c(=O)[nH]c(=O)[nH]c3n2)cc1COC(=O)C(C)(C)C", "260 to 266 °C"],
  ["Cn1cc(C(=O)NCc2ccc(Cl)cc2)c(=O)c2cc(CCCCCO)oc21", "151 to 152 °C"],
  ["CC[C@@]12C[C@H](O)[C@](O)(c3c(F)cccc3F)C[C@H]1CCc1cc(O)ccc12", "198 to 200 °C"],
  ["COc1cc(C=C2NC(=O)NC2=O)cc(OC)c1", "285 to 287 °C"],
  ["CC(=O)Oc1ccc(C(C)=NOCCOc2ccc(CC3SC(=O)NC3=O)cc2)cc1 (stereo unspecified)", "133 to 135 °C"],
  ["Cc1ccc(-c2cc(N3CCC(C(N)=O)CC3)c3ccccc3n2)cc1", "230 to 232 °C"],
  ["CN(C)Cc1c[nH]c2c(C(=O)c3ccccc3)cccc12", "111 to 114 °C"],
  ["Nc1cc(=O)nc(Nc2ccccc2)n1-c1ccccc1", "202 to 206 °C"],
  ["O=C([C@H](O)CS(=O)(=O)c1ccc2cc(Cl)ccc2c1)N1CCN(N2CCCCC2=O)CC1", "198 °C"],
  ["Oc1ccc2c(-c3cccnc3)coc2c1", "167 to 168 °C"],
  ["Cc1cc(Br)cnc1CCCCNc1ncc(Cc2ccn(C)c(=O)c2)c(=O)[nH]1", "203 to 204 °C"],
  ["N#Cc1cnc2c(c1Cl)C=C1N=CN=C1C2", "> 300 °C"],
  ["Cn1ccnc1C(O)(c1ccc(Cl)cc1)c1ccc(Cl)cc1", "190 to 191 °C"]
]}
